Biological target: histone deacetylase (chicken liver S100 lysate)
Test: Competitive binding assay with 3H-N-desmethoxyapicidin, chick liver S100 lysate
Conditions: displacement of 3H-N-desmethoxyapicidin, chick liver S100
Measured quantity: IC50

CCC(=O)CCCCC[C@@H]1NC(=O)[C@H]2CCCCN2C(=O)[C@H](C(C)CC)NC(=O)[C@H](c2cn(OC)c3ccccc3c2=O)NC1=O (stereo partly drawn) : > 1 µM

Could you tell me which IC50 is on file for "CC(/C=C/C(=O)O)=C\[C@@H](C)C(=O)c1ccc(N(C)C)cc1" ?
> 1 µM

Fill in the blank: the reported IC50 of CCC(=O)CCCCC[C@@H]1NC(=O)[C@H]2CCCCN2C(=O)[C@H](C(C)CC)NC(=O)[C@H](c2c[nH]c3ccccc3c2=O)NC1=O (stereo partly drawn) is ____.
> 1 µM
